Recorded koff for the following binders
# assay_system: T1, rat serum albumin (rat)
# T1 chain: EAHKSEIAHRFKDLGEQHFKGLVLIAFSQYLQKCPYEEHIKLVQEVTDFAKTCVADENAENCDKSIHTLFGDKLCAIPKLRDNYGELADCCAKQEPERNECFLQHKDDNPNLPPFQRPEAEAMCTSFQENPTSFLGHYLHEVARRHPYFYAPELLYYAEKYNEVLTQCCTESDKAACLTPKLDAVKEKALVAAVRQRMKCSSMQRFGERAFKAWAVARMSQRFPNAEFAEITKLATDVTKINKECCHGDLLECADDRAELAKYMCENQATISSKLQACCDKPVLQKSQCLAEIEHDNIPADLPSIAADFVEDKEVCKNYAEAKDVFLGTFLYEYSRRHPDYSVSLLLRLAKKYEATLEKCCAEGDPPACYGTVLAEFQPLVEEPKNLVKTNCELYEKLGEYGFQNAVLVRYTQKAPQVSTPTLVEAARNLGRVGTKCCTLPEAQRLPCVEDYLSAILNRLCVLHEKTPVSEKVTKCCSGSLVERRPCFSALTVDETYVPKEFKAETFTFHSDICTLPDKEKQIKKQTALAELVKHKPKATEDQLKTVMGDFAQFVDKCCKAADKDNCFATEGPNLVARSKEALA
# measurement_protocol: SPR Biacore T200, fusion protein captured by anti-VHH antibody, albumin as analyte

Enquiry: Please look up its koff: 0052 (other, Single-chain fusion: anti-HSA VHH, linker, relaxin-2 B chain, linker, relaxin-2 A chain; also called fusion protein 0052) EVQLLESGGGLVQPGGSLRLSCAASGFTFLTSCMGWFRQAPGKEREGVSSIYTVGGSTFYTNSVKGRFTISRDNSKNTLYLQMNSLRAEDTAVYYCAAGSPARCRLRDPTTFDYWGQGTLVTVSSPGPAPGPAPGPAPGPAPGPAPGPAPGPAPGPASWMEEVIKLCGRELVRAQIAICGMSTWSGGGSGGSGGGQLYSALANKCCHVGCTKRSLARFC
Return: 0.00599 s⁻¹

Enquiry: Please look up its koff: 0054 (other, also called positive control 0054; positive control molecule 0054) EVQLLESGGGLVQPGGSLRLSCAASGRYIDETAVAWFRQAPGKGREFVAGIGGGVDITYYADSVKGRFTISRDNSKNTLYLQMNSLRPEDTAVYYCAARPGRPLITSKVADLYPYWGQGTLVTVSSGGGGQGGGGQGGGGQGGGGQGGGGQSWMEEVIKLCGRELVRAQIAICGMSTWSGGGSGGSGGGQLYSALANKCCHVGCTKRSLARFC
Return: 0.0113 s⁻¹

Enquiry: Please look up its koff: 0065 (other, Single-chain fusion: anti-HSA VHH, linker, relaxin-2 B chain, linker, relaxin-2 A chain; also called fusion protein 0065) EVQLLESGGGLVQPGGSLRLSCAASGFTFLTSCMGWFRQAPGKEREGVSSIYTVGGSTFYTNSVKGRFTISRDNSKNTLYLQMNSLRPEDTAVYYCAAGSPARCRLRDPTTFDYWGQGTLVTVSSGGGGQGGGGQGGGGQGGGGQGGGGQSWMEEVIKLCGRELVRAQIAICGMSTWSGGGSGGSGGGQLYSALANKCCHVGCTKRSLARFC
Return: 0.00567 s⁻¹
